Catalogue of LD50 values
experiment: Acute toxicity (oral administration); details: mouse, in vivo, male ICR mice, Litchfield-Wilcoxon method
Field format: number, assumed mg/kg, no unit text.

Nn1cc(Br)c(=O)[nH]c1=O	1920

Now consider a different molecule.
Prompt line: Tell us which LD50 value is on record for `Nn1cc(Cl)c(=O)[nH]c1=O`
Response line: 971

====

assay: in vivo; details: mouse, in vivo, po
Quantity measured: ED50 (mg/kg)
Return type: number; implicit unit mg/kg.

Nn1cc(Br)c(=O)[nH]c1=O	74.1

Prompt line: Provide one value: measured ED50 of CN1C(=O)CN=C(c2ccccc2)c2cc(Cl)ccc21 [DZP, diazepam, reference compound]
Response line: 8.8

Prompt line: Supply ED50 value. Item: `Nn1cc(Cl)c(=O)[nH]c1=O`
Response line: 46
